# TARGET: T1, mpl-Ig (UniProt P40238 26-491)
# T1 construct: From conditioned media of mpl-Ig-transfected 293 cells, captured on rabbit anti-human IgG Fc; also called mpl-IgG; not shown: Ig part, captured by anti-human IgG Fc
# T1 sequence (looked up): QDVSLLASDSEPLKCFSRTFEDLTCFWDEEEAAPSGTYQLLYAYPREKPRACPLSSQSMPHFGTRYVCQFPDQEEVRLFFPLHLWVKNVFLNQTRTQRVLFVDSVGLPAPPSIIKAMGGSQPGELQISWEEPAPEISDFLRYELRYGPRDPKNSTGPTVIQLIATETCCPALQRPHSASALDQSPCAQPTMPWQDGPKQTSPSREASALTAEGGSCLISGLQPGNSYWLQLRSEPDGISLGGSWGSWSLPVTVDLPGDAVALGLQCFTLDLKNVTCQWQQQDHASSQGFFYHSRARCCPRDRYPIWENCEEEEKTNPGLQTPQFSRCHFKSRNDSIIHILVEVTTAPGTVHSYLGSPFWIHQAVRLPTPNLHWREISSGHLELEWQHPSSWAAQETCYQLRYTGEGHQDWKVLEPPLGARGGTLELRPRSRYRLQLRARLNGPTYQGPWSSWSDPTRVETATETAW
# METHOD_SUMMARY: TPO receptor-binding inhibition ELISA: biotinylated TPO on captured mpl-Ig
MEASURED_METRIC: pIC50
Give bare numbers, as −log10 of the molar value.

Previously resolved entries follow.
# BINDER, pIC50
records = [
    ("12B5 IgG (antibody, V domains shown) VH: QVQLVQSGGGLVRPGGSLSLSCAVSGITLRTYGMHWVRQAPGKGLEWVAGISFDGRSEYYADSVQGRFTISRDSSKNTLYLQMNSLRAEDTAVYYCARGAHYGFDIWGQGTMVTVSS VL: DIVMTQSPSTLSASIGDRVTITCRASEGIYHWLAWYQQKPGKAPKLLIYKASSLASGAPSRFSGSGSGTDFTLTISSLQPDDFATYYCQQYSNYPLTFGGGTELEIKR", 9.82),
    ("12D5 Fab (Fab, V domains shown) VH: QVQLVESGGGLVKPGGSLRLSCAASGFTFSSHNMNWVRQAPGKGLEWVSSISSSSSYIYYADSVKGRFTISRDNAKNSLYLQMNSLRAEDTAVYYCARDRGSTGMDVWGRGTLVTVSS VL: DIVMTQSPSTLSASIGDRVTITCRASEGIYHWLAWYQQKPGKAPKLLIYKASSLASGAPSRFSGSGSGTDFTLTISSLQPDDFATYYCQQYSNYPLTFGGGTELEIKR", 6.00),
    ("12D5 IgG (antibody, V domains shown) VH: QVQLVESGGGLVKPGGSLRLSCAASGFTFSSHNMNWVRQAPGKGLEWVSSISSSSSYIYYADSVKGRFTISRDNAKNSLYLQMNSLRAEDTAVYYCARDRGSTGMDVWGRGTLVTVSS VL: DIVMTQSPSTLSASIGDRVTITCRASEGIYHWLAWYQQKPGKAPKLLIYKASSLASGAPSRFSGSGSGTDFTLTISSLQPDDFATYYCQQYSNYPLTFGGGTELEIKR", 9.35),
    ("12E10 scFv (scFv) MAQVQLQQSGPGLVKPSETLSLTCTVSGDSISSYYWSWIRQPPGKGLEWIGYIYYSGSTNYNPSLKSRVTISVDTSKSQFSLKLSSVTAADTAVYYCARGRYFDVWGRGTMVTVSSGGGGSGGGGSGGGGSSYVLTQPPSVSGSPGQSITISCTGTSSDVGGYNYVSWYQQHPGKAPKLMIYEGSKRPSGVSNRFSGSKSGNTASLTISGLQAEDEADYYCSSYTTRSTRVFGGGTKLTVLGAA", 8.80),
]

# next binder below
## Input Quick one: pIC50 for 12B5 scFv (scFv) MAQVQLVQSGGGLVRPGGSLSLSCAVSGITLRTYGMHWVRQAPGKGLEWVAGISFDGRSEYYADSVQGRFTISRDSSKNTLYLQMNSLRAEDTAVYYCARGAHYGFDIWGQGTMVTVSSGGGGTGGGGSGGGGSDIQMTQSPSTLSASIGDRVTITCRASEGIYHWLAWYQQKPGKAPKLLIYKASSLASGAPSRFSGSGSGTDFTLTISSLQPDDFATYYCQQYSNYPLTFGGGTELEIKRAA ?
## Output 7.77
